TARGET DESC: bovine cardiac myofibrils (full-length cardiac myosin ATPase in the native sarcomere) (Bos taurus (Bovine))
METHOD SUMMARY: Skinned bovine cardiac myofibril ATPase assay (PK/LDH-coupled)
Assay type: biochemical
PARTICULARS: Ca2+ activating to 75% of maximal rate, concentration giving 15% inhibition
The compounds listed here are annotated with their CDMF75 IC15.
Just the number in nM, nothing appended.

Example results:
Cc1nc(-c2ccc3c(c2)OCC3NC(=O)c2cnc(C)o2)no1 (stereo not drawn)
2000
CCc1nc(-c2ccc3c(c2)CC[C@H]3NC(=O)C2CCCCN2C)no1 (stereo partly drawn)
29000
COCc1nc(-c2ccc3c(c2)CC[C@H]3NC(=O)c2cc(CO)ccn2)no1 [Compound 672]
3200
Cc1cc(C(=O)NC2CCc3cc(-c4noc(C)n4)ccc32)on1 (stereo not drawn)
2100
CCc1nc(-c2ccc3c(c2)CC[C@H]3NC(=O)c2cnn(C3CNC3)c2)no1
39200
CCc1nc(-c2ccc3c(c2)CC[C@H]3NC(=O)OCC2COC2)no1
600
Cc1nn(C)cc1C(=O)NC1CCc2cc(-c3noc(C4CC4)n3)ccc21 (stereo not drawn)
700
O=C(N[C@@H]1COc2cc(-c3noc(C(F)F)n3)ccc21)c1cccc(CO)c1
300

Continue with the compound presented below.
Find the recorded CDMF75 IC15 belonging to `Cc1cc(C(=O)N[C@@H]2CCc3cc(-c4nc(C)co4)ccc32)ccn1` and report it.
8100

---

TARGET DESC: bovine cardiac myofibrils (full-length cardiac myosin ATPase in the native sarcomere) (Bos taurus (Bovine))
METHOD SUMMARY: Skinned bovine cardiac myofibril ATPase assay (PK/LDH-coupled)
PARTICULARS: Ca2+ activating to 75% of maximal rate, read-out: CDMF75 IC50
compounds and their reported IC50
Enter your answer as a number in µM; do not include the unit.

Cc1nc(-c2ccc3c(c2)CCC3NC(=O)c2cnn(C)c2C)no1 (stereo not drawn) [Compound 54]
7.8
COCc1nc(-c2ccc3c(c2)CC[C@H]3NC(=O)c2cnn(C)c2)no1 [Compound 178]
6.8
CCOC(=O)C(C)c1nc(-c2ccc3c(c2)CC[C@H]3NC(=O)c2ccnn2C)no1 (stereo partly drawn) [Compound 492]
4

Read the next record carefully.
Would you kindly share the measured IC50 for CCc1nc(-c2ccc3c(c2)CC[C@H]3NC(=O)c2ccno2)no1 [Compound 581] ?
1.4

---

TARGET DESC: bovine cardiac myofibrils (full-length cardiac myosin ATPase in the native sarcomere) (Bos taurus (Bovine), UniProt Q9BE39)
Sequence (Q9BE39 whole entry): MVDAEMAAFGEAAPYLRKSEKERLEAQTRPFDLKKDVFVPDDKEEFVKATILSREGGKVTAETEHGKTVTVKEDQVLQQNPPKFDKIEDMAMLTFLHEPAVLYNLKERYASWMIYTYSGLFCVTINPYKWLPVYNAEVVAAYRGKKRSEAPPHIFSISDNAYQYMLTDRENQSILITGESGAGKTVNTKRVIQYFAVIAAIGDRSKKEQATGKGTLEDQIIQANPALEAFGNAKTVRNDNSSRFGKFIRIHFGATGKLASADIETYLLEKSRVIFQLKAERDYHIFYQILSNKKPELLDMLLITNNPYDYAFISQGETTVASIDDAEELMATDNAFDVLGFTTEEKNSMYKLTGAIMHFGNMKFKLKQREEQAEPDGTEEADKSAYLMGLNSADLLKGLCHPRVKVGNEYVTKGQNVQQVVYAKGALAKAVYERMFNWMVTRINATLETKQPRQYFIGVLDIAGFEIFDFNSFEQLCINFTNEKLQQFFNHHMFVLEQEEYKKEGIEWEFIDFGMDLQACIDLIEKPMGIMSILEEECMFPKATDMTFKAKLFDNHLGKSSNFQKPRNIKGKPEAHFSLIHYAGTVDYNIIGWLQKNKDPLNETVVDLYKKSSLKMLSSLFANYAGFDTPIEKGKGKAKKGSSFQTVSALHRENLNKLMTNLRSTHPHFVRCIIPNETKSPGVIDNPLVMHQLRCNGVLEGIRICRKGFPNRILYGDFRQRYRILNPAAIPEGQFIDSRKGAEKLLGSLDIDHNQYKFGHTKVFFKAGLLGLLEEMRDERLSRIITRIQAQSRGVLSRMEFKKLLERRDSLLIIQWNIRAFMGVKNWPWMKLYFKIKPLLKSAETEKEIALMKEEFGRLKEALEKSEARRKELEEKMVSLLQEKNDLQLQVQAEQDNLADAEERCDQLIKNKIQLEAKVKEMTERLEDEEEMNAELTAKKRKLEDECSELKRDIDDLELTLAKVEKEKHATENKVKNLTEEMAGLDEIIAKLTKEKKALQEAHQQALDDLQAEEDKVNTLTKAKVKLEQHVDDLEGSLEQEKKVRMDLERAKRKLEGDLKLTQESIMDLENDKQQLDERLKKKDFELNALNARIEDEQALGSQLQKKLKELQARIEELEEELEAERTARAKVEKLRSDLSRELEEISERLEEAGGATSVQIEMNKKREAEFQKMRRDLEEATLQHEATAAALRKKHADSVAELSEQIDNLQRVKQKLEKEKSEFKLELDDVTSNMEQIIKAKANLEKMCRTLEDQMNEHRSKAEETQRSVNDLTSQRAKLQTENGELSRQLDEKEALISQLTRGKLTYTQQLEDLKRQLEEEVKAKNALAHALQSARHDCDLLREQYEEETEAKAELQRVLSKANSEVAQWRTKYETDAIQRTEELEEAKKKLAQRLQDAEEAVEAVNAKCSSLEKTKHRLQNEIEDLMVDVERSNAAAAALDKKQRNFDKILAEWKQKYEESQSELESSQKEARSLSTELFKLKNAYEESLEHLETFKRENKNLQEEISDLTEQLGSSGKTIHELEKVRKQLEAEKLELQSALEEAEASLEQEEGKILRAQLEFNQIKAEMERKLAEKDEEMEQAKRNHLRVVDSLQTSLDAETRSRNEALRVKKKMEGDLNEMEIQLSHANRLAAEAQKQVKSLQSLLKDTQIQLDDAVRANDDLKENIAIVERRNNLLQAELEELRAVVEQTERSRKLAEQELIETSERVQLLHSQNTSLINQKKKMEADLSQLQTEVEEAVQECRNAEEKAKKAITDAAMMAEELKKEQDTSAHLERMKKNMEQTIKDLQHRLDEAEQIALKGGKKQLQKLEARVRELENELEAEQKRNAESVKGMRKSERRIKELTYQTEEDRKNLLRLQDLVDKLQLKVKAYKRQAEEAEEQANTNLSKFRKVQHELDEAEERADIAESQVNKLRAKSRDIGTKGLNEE
Sequence (P85100 whole entry partner): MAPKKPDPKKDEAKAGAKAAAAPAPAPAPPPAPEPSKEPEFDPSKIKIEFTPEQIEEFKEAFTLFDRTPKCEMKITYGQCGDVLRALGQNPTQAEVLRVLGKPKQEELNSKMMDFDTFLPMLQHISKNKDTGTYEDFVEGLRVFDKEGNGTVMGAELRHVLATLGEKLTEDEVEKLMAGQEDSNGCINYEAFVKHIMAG
Sequence (Q3SZE5 whole entry partner): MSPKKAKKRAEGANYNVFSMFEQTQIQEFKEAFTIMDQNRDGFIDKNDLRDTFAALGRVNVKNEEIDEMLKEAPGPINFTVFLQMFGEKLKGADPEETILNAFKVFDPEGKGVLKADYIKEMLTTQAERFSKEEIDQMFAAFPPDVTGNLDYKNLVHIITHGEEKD
METHOD SUMMARY: Skinned bovine cardiac myofibril ATPase assay (PK/LDH-coupled)
PARTICULARS: Ca2+ activating to 75% of maximal rate, read-out: CDMF75 IC50
pIC50: −log10 of the molar value.
Label rule, in plain words: pIC50 of 5 and up is satisfied, under 5 is not satisfied.

Example results:
Cc1nc(-c2ccc3c(c2)OCC3NC(=O)c2cnn(C)c2)no1 (centres unmarked) [Compound 212]
satisfied
CCc1nc(-c2ccc3c(c2)CCC[C@H]3NC(=O)c2ccnn2C)no1 [Compound 526]
satisfied
Cc1nc(-c2ccc3c(c2)CCC3NC(=O)c2ccnc(N)c2)no1 (centres unmarked) [Compound 33]
satisfied
COCc1nc(-c2ccc3c(c2)CC[C@H]3NC(=O)c2c[nH]nc2C)no1 [Compound 397]
satisfied
CCc1nc(-c2ccc3c(c2)CC[C@H]3NC(=O)c2cc(C)n(C)n2)no1 [Compound 580]
not satisfied

Does pIC50 meet or surpass 5 for COCc1nc(-c2ccc3c(c2)CC[C@H]3NC(=O)c2ocnc2C)no1 [Compound 177] ?
satisfied

Check if pIC50 >= 5 (inclusive). Item: Cc1cc(C(=O)N[C@@H]2CCc3cc(-c4nc(C)no4)ccc32)n(C)n1 [Compound 194]
satisfied
